Test system: EKVX
Experiment: NCI tumour cell line growth inhibition, 48 h
The source made the active and inactive calls. No stated cut-off is given here; in the data, active = GI50 up to about 1.1 µM and inactive = higher.
Would you mind answering with one of these outcomes? active, inactive

Worked examples follow.
O=C(CCl)Nc1ccc(C(=O)N/N=C/c2ccc(Cl)cc2)cc1 | inactive
COCCOCc1nc(C#N)c(N)o1 | inactive
COCN(C)c1nc(N(C)C)nc(N(C)C)n1 | inactive
COc1cc(/C=[N+](\[O-])c2ccccc2Cl)ccc1OC(=S)S | inactive
CC1=NN(c2cccc(Cl)c2)C2(SCC(=O)N2c2nc3ccccc3s2)/C1=C\c1ccc(Cl)cc1 (stereo not given) | inactive

Enquiry: Hi, sorry to bother you, what did the test record for CC(C)C12Cc3c(ccc4ccccc34)OC1(C)Oc1ccc3ccccc3c1C2 (stereo not given) ?
Return: inactive

Enquiry: Hi, sorry to bother you, what did the test record for Brc1cccc(/C=C/CN2CCN(CCOC(c3ccccc3)c3ccccc3)CC2)c1 ?
Return: inactive

----------
Tested on: HOP-62
Assay: NCI tumour cell line growth inhibition, 48 h
Active and inactive are the calls of the source. Rule as the data show it: active = GI50 up to about 1.1 µM and inactive = higher.
Task for the reader: assign each of the following compounds its reported GI50.

Examples from the recorded data:
COC(=O)C1=C(OC(=O)/C(=C/c2ccc(Cl)cc2Cl)c2ccc(Cl)cc2Cl)C(C(=O)OC)[C@@]2(O)[C@@H](C(=O)OC)[C@H](C)C[C@@H]1[C@@H]2C(=O)OC (stereo not given in full) | > 100 µM (inactive)
c1ccc2c(c1)C1CCCCCC21N1CCOCC1 (stereo not given) | > 100 µM (inactive)
Cc1cc(C(=O)CBr)c(CN2C(=O)c3ccccc3C2=O)c(=O)n1C | 47.4 µM (inactive)

Could you report GI50 for every entry in the following list?
1. O=C1C(O)=C(CN(CCCl)CCCl)C(=O)c2ccccc21
2. CC1=CC(=O)CC(C)(C)C1/C=C/C(C)=C/C=C/C(C)=C/C=C/C=C(C)/C=C/C=C(C)/C=C/C1C(C)=CC(=O)CC1(C)C (stereo not given)
3. Cn1c(=O)c2nc(CCCCc3nc4ccccc4[nH]3)[nH]c2n(C)c1=O
4. Cc1cccc(C)c1NC(=O)C(=O)CC(=O)CO
5. O=C(Nc1ccc2ncccc2c1)c1cc2c(cc1Cl)Sc1nccn1S2(=O)=O
6. COn1cc(C=O)c2ccccc21

Return:
1. > 100 µM (inactive)
2. 42 µM (inactive)
3. > 100 µM (inactive)
4. > 100 µM (inactive)
5. 16.4 µM (inactive)
6. 81.3 µM (inactive)

Enquiry: # input compound: COC(=O)c1cc(O)c(O)c(O)c1-c1c(O)c(O)c(O)c(SC[C@H](NC(=O)OCc2ccccc2)C(=O)OCc2ccccc2)c1C(=O)OC ; wanted: its GI50
Return: 35.1 µM (inactive)

----------
System: LOX IMVI
Test: NCI tumour cell line growth inhibition, 48 h
The source made the active and inactive calls. Cut-off read from the data, not from the text of the source: active = GI50 up to about 1.1 µM and inactive = higher.
Task for the reader: assign each of the following molecules its reported GI50.

Examples from the recorded data:
C=C(c1ccccc1)c1ccccc1-c1cc(-c2ccccc2)cc(-c2ccccc2)n1 | > 100 µM (inactive)
CCCCCCCCCc1cc(=O)c2ccc(O)cc2o1 | 40.2 µM (inactive)
CC(=O)O[C@@]12[C@@H]3O[C@@]4(O)C[C@]5(C)[C@H]6C[C@@](C(C)C)(O[C@H]5c5ccoc5)O[C@H]1[C@]6(C4)O[C@]2(O)C(C)=CC3(C)C | > 100 µM (inactive)

Now look at this entry.
Enquiry: # input molecule: O=c1c2ccccc2sc2cccc(NCCCN3CCN(CCCNc4cccc5sc6ccccc6c(=O)c45)CC3)c12 ; wanted: its GI50
Return: > 100 µM (inactive)

----------
System: SK-MEL-5
Assay: NCI tumour cell line growth inhibition, 48 h
Calls of active or inactive are those of the source. No stated cut-off is given here; in the data, active = GI50 up to about 1.1 µM and inactive = higher.
Task for the reader: assign each of the following compounds its reported GI50.

Could you report GI50 for every entry in the following list?
1. O=c1oc2ccc([N+](=O)[O-])cc2cc1Br
2. CC(C)Cn1cnc2c(SCc3ccccn3)nc(N)nc21
3. COC(=O)C(Cc1nc2ccccc2nc1O)C(=O)C(=O)Nc1ccc(OC)cc1[N+](=O)[O-] (stereo not given)
4. COc1cc(C)c(C)c(OC(=O)c2c(C)c(C)c(OC)c(C)c2OC)c1C

Return:
> 100 µM (inactive)
> 100 µM (inactive)
> 100 µM (inactive)
5.02 µM (inactive)

----------
Tested on: A549
Assay: NCI tumour cell line growth inhibition, 48 h
Active and inactive are the calls of the source. Rule as the data show it: active = GI50 up to about 1.1 µM and inactive = higher.
Task for the reader: assign each of the following compounds its reported GI50.

CN(Cc1ccccc1)C(=S)S [SODIUM BENZYL(METHYL)CARBAMODITHIOATE] | 33.5 µM (inactive)
COc1nc(NC2OCC(O)C(O)C2O)c(NC2OCC(O)C(O)C2O)c(=O)n1C (centres undefined) | > 100 µM (inactive)
COc1cc(C(=O)N2CCc3c([nH]c4c([N+](=O)[O-])c(OC)ccc34)C2C)cc(OC)c1OC (centres undefined) | > 100 µM (inactive)
CCc1nnc(S)n1/N=C\c1ccc(-c2ccccc2[N+](=O)[O-])o1 | 42.9 µM (inactive)
CCOC(=O)/C(C#N)=C/c1[nH]c(C)c(C)c1C | > 100 µM (inactive)

Could you report GI50 for every entry in the following list?
1. Nc1ccc2c(c1)C(=O)c1c(F)cccc1-2
2. c1ccc2c(-c3ccnc(-c4c[nH]c5ccccc45)n3)c[nH]c2c1

Return:
1. 96.6 µM (inactive)
2. 3.27 µM (inactive)

Could you report GI50 for every entry in the following list?
1. O=C(CCl)Nc1ccc(C(=O)N/N=C/c2ccc(Cl)cc2)cc1
2. CC(C)(C)OC(=O)/C=C/C(=O)O/C=C/[N+](=O)[O-]
3. COc1cc2c(cc1OCCCC(=O)Nc1cc(C(=O)Nc3cc(C(=O)Nc4cc(C(=O)NCCCN(C)C)n(C)n4)n(C)n3)n(C)n1)N=CC1CCCN1C2=O (centres undefined)
4. Cc1cccc(C)c1N1C(=O)C(=O)C(c2nc3ccccc3s2)/C(=N/c2cccc3c(=O)[nH][nH]c(=O)c23)C1=O (centres undefined)
5. Cc1c(Cl)ccc2c1NC(=O)C2(O)CC(=O)c1ccc(Cl)cc1 (centres undefined)
6. COc1ccc(/C=C(\C#N)c2nc3ccccc3c(=O)[nH]2)cc1

Return:
1. 6.07 µM (inactive)
2. > 100 µM (inactive)
3. 55.2 µM (inactive)
4. > 100 µM (inactive)
5. > 100 µM (inactive)
6. 45.9 µM (inactive)

Could you report GI50 for every entry in the following list?
1. Cc1cnc2ccc(C)c([N+](=O)[O-])c2c1NCCCN(C)C
2. C=C1CC(OC(C)=O)/C=C(/C)CCC(C(C)(C)O)CC1O (centres undefined)
3. COc1c2c(cc3nc4ccccc4nc13)CCC(C(C)(C)O)C2 (centres undefined)
4. Cc1nc2c(ccc3ncccc32)[nH]1
5. COCCOCc1nc(C#N)c(N)o1
6. CC(C)(C)c1cc(COc2c3sc(=S)sc3c(OCc3cc(C(C)(C)C)cc(C(C)(C)C)c3)c3sc(=S)sc23)cc(C(C)(C)C)c1

Return:
1. > 100 µM (inactive)
2. > 100 µM (inactive)
3. > 100 µM (inactive)
4. > 100 µM (inactive)
5. > 100 µM (inactive)
6. > 100 µM (inactive)

----------
Task for the reader: assign each of the following molecules its reported GI50.
System: M19-MEL
Test: NCI tumour cell line growth inhibition, 48 h
Calls of active or inactive are those of the source. Cut-off read from the data, not from the text of the source: active = GI50 up to about 1.1 µM and inactive = higher.

COc1cc(CC(C(=O)O)C(=O)O)c(OC)cc1CC(C(=O)O)C(=O)O | > 100 µM (inactive)
CC(C)C(Sc1nc(-c2ccccc2)c(-c2ccccc2)[nH]1)C(=O)N/N=C/c1ccc([N+](=O)[O-])cc1 (centres undefined) | 11.6 µM (inactive)
CCSc1nc2sc(C)c(C)c2c(=O)n1-c1ccc(C(=O)O)cc1 | 60 µM (inactive)
COc1ccc(NC(=O)CC(=O)NN2C(=O)/C(=C/c3ccc(N(CCC#N)CCC#N)cc3C)N=C2/C=C\c2ccccc2)cc1 | > 100 µM (inactive)

Could you report GI50 for every entry in the following list?
1. O=C1c2c(nc3ccccc3c2-c2ccccc2)CN1Nc1ccccc1
2. COc1c(Cl)c2c(c(OC)c1OC)-c1ccc(OC)c(=O)c(Cl)c1C(NC(C)=O)CC2 (centres undefined)

Return:
1. > 100 µM (inactive)
2. 0.262 µM (active)

Could you report GI50 for every entry in the following list?
1. CC(=O)C1C(=O)C(=O)N(c2ccccc2N2C(=O)C(=O)C(C(C)=O)C2=O)C1=O (centres undefined)
2. C/C(=N\O)c1sc(-n2nc(-c3ccccc3)cc2-c2ccccc2)nc1C
3. CCOCc1cc(=O)c2cc3c(cc2o1)OC(C)(C)CC3

Return:
> 100 µM (inactive)
13.3 µM (inactive)
> 100 µM (inactive)

Values compiled from ChEMBL document CHEMBL1201862.
